target: T1, human PCSK9 variant b (human, UniProt Q8NBP7 31-692); assay: ProteOn SPR, captured antibody, pH 5.8;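 further: antibodies captured on a GLC chip coated with anti-human Fc, rate constants from a 1:1 Langmuir fit of the sensorgrams, Kd derived from the fitted rates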
T1 construct: also called Human PCSK9 var B; hPCSK9b
T1 sequence (Q8NBP7 other isoform, or with tags, fused parts or gaps mutant limits assumed): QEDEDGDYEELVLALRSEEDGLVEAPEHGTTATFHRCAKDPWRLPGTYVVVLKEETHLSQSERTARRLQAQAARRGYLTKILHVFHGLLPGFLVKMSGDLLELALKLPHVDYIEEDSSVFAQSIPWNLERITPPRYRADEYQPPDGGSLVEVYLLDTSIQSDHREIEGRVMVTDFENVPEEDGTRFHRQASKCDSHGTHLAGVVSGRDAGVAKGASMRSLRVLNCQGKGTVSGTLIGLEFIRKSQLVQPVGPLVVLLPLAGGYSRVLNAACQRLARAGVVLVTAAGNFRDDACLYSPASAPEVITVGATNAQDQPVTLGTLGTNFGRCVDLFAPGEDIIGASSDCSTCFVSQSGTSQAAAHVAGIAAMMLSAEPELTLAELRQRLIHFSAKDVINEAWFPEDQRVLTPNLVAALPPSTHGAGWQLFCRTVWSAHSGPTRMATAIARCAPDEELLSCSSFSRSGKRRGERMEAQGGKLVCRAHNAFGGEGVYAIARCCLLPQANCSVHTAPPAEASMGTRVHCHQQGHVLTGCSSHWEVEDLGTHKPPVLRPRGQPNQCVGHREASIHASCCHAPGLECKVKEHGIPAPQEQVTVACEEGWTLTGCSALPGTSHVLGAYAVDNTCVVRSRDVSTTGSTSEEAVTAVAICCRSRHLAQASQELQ
Measured Quantity: kon
Provide a numeric answer, followed by its unit.

Solved cases below.
Binder	kon
CL-148489 (antibody, V domains shown, Human antibody with a kappa light chain) VH: EVQLVESGGGLVQPGRSLRLSCTASGFTFADYVMHWVRQTPGKGLEWVSGISWNSYSINYADSVKGRFTISRDNAQNSLYLQMNSLRAEDTALYFCAKDITYDLLTGYNYNYGLDVWGQGTTVTVSS VL: DIVMTQTPLSLSVTPGQPASISCRSSQSLLHSDGKTYLYWYLQKPGQPPQLLIYEVSNRFSGVPDRFSGSGSGTDFTLKISRVEAEDVGLYYCMQSIQLPLTFGGGTKVEIK	1.54e+06 M⁻¹ s⁻¹
CL-148219 (antibody, V domains shown, NLT motif in heavy chain framework 3 confirmed N-glycosylated by mass spectrometry, Human antibody, captured through anti-human Fc in the SPR assay) VH: QVHLQESGPGLVKPSETLSLTCTVSGGSISSYYWSWIRQYPGKGLEWIGYISYSGSSNYNPSLKRRVTISRDTSKNQFSLNLTSVIAADTAVYYCARNLMIRGAYGMDVWGQGTTVTVSS VL: DTVMTQSPLSLPVTPGEPASISCRSSQSLLHSNGYNYLDWYLQKAGQSPQLLIYLGSNRASGVPDRFSGSVSGTDFTLKISRVEAEDVGIYYCMQALQTPFTFGPGTKVDIK	918000 M⁻¹ s⁻¹
CL-148219 QLT mutant (antibody, V domains shown) VH: QVHLQESGPGLVKPSETLSLTCTVSGGSISSYYWSWIRQYPGKGLEWIGYISYSGSSNYNPSLKRRVTISRDTSKNQFSLQLTSVIAADTAVYYCARNLMIRGAYGMDVWGQGTTVTVSS VL: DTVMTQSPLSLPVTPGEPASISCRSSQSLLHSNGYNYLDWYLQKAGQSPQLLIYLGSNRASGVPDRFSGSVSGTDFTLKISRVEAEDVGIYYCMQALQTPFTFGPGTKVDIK	607000 M⁻¹ s⁻¹

Here's the next entry for you.
In one line, give reported kon of the entry CL-274698 (antibody, V domains shown, Human antibody with a kappa light chain, derived from a PCSK9 knockout mouse) VH: QVQLQESGPGLVKPSGTLSLTCAVSGGSISSSKWWSWVRQPPGKGLEWIGETHYSGSTNYNPSLKSRVTISVDKSKNQFSLKLRSVTAADTAVYYCARVGATENFWGQGTLVTVSS VL: EIVLTQSPATLSLSPGERATLSCRASQSVFRYLAWYQQKPGQAPRLLIYDASTRATDIPARFSGSGSGTDFTLTISSLEPEDFAVYYCQQRSNWPPTFGQGTKVEIK .
1.6e+06 M⁻¹ s⁻¹
